Entry source: ChEMBL document CHEMBL5291721

# AC50 per entry
- study-target: UniProtKB P41595
- Sequence (P41595 whole entry): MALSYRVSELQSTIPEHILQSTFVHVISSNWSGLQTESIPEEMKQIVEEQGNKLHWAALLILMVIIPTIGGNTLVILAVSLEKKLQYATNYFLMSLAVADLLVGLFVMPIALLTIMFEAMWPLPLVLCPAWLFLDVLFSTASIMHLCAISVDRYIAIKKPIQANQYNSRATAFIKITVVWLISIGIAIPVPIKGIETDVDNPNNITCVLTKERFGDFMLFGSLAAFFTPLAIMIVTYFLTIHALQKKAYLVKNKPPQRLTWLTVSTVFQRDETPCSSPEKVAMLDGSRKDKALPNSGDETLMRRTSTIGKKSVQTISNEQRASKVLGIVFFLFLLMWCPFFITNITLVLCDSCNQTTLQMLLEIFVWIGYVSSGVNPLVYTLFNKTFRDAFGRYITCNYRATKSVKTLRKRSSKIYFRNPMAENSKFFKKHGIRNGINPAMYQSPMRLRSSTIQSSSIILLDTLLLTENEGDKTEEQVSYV
- Type: functional, cell-based

>  <compound>
CCCOC(C(=O)OC1CCN(C)CC1)(c1ccccc1)c1ccccc1

>  <AC50>
> 30 µM

$$$$
>  <compound>
Nc1nc(O)c2ncn(COC(CO)CO)c2n1

>  <AC50>
> 30 µM

$$$$
>  <compound>
O=C1Nc2ccc(Cl)cc2C(c2ccccc2)=NC1O (stereo not given)

>  <AC50>
> 10 µM

$$$$
>  <compound>
CCOc1cc(CC(=O)N[C@@H](CC(C)C)c2ccccc2N2CCCCC2)ccc1C(=O)O [REPAGLINIDE]

>  <AC50>
> 10 µM

$$$$
>  <compound>
CC(C)=CCOc1ccc(/C=C/C(=O)c2ccc(OCC=C(C)C)cc2OCC(=O)O)cc1

>  <AC50>
> 30 µM

$$$$
